FYI, the data here is from ChEMBL document CHEMBL2417469.

Answer each item with its documented GI50.
- System: RXF 393
- ASSAY: Cytotoxicity against human RXF393 cells after 48 hrs by SRB assay
- Type: functional
- RUN_CONDITIONS: RXF 393, 48 h
Give bare numbers, in nM.

Solved cases (3 shown):
API: value(readout=GI50, system=RXF 393) for record O=CN1N=C(c2ccc(Nc3ccnc4cc(Cl)ccc34)cc2)CC1c1ccccc1 (stereo unspecified)
2200

Field: GI50 (RXF 393). Entry: COc1cccc2c1C(=O)c1c(O)c3c(c(O)c1C2=O)C[C@@](O)(C(=O)CO)C[C@@H]3O[C@H]1C[C@H](N)[C@H](O)[C@H](C)O1
100

Checklist item: GI50 tested on RXF 393, entry COc1cc(C2CC(c3ccc(Nc4ccnc5cc(Cl)ccc45)cc3)=NN2C=O)cc(OC)c1OC (stereo unspecified) , value?
2220

Quick one: give me GI50 for each item below, same order please.
1. O=CN1N=C(c2ccc(Nc3ccnc4cc(Cl)ccc34)cc2)CC1c1ccc(Cl)cc1 (stereo unspecified)
2. CC(=O)N1N=C(c2ccc(Nc3ccnc4cc(Cl)ccc34)cc2)CC1c1ccc(Cl)cc1 (stereo unspecified)
3. O=CN1N=C(c2cccc(Nc3ccnc4cc(Cl)ccc34)c2)CC1c1ccc(Cl)cc1 (stereo unspecified)

1880
5070
3080

Hi there! I need GI50 for each item below, if you can.
1. O=CN1N=C(c2cccc(Nc3ccnc4cc(Cl)ccc34)c2)CC1c1ccccc1 (stereo unspecified)
2. COc1ccc(C2CC(c3cccc(Nc4ccnc5cc(Cl)ccc45)c3)=NN2C=O)cc1 (stereo unspecified)
3. Cc1ccc(C2CC(c3ccc(Nc4ccnc5cc(Cl)ccc45)cc3)=NN2C=O)cc1 (stereo unspecified)
4. COc1ccc(C2CC(c3ccc(Nc4ccnc5cc(Cl)ccc45)cc3)=NN2C=O)cc1 (stereo unspecified)
5. COc1cc(C2CC(c3cccc(Nc4ccnc5cc(Cl)ccc45)c3)=NN2C=O)cc(OC)c1OC (stereo unspecified)

[390, 850, 4890, 11600, 1540]
